Tested on: Exserohilum rostratum
procedure_details: Antifungal activity against Setosphaeria rostrata assessed as growth inhibition at 300 ug/ml
Format: functional
run_conditions: read-out: IZ
quantity: zone of inhibition at 300 µg/mL (mm)
Supply the numeric figure in mm, leaving out any unit text.

smiles_code | target_system | zone of inhibition at 300 µg/mL [mm]
CCCOc1ccc(CN2CCN(CCCOc3c(-c4ccccc4)c(=O)oc4cc(OC)ccc34)CC2)cc1 | Exserohilum rostratum | 3.25
COc1ccc2c(OCCCN3CCN(Cc4ccc[nH]4)CC3)c(-c3ccccc3)c(=O)oc2c1 | Exserohilum rostratum | 3.54
COc1ccc2c(OCCCN3CCN(Cc4cccnc4)CC3)c(-c3ccccc3)c(=O)oc2c1 | Exserohilum rostratum | 2.9
COc1ccc2c(OCCCN3CCN(Cc4ccc(F)cc4F)CC3)c(-c3ccccc3)c(=O)oc2c1 | Exserohilum rostratum | 5.02

Shift focus to the following entry.
Report zone of inhibition at 300 µg/mL, nothing else, for this compound: COc1ccc2c(OCCCN3CCN(Cc4ccc(Br)cc4)CC3)c(-c3ccccc3)c(=O)oc2c1 4.56

###

Let's look at some compounds and their measured zone of inhibition at 600 µg/mL.
System: Staphylococcus aureus
procedure_details: Antibacterial activity against Staphylococcus aureus assessed as growth inhibition at 600 ug/ml by NCCLS […] method
Type: functional
run_conditions: read-out: IZ
Give the quantity in mm, number only.

Example cases with answers are listed next.
compound | assay_result
CCCOc1ccc(CN2CCN(CCCOc3c(-c4ccccc4)c(=O)oc4cc(OC)ccc34)CC2)cc1 | 1.55
COc1ccc(CN2CCN(CCCOc3c(-c4ccccc4)c(=O)oc4cc(OC)ccc34)CC2)cc1 | 3

Let us move to another entry and its zone of inhibition at 600 µg/mL.
Assign zone of inhibition at 600 µg/mL to the following record: COc1ccc2c(OCCCN3CCN(Cc4cccnc4)CC3)c(-c3ccccc3)c(=O)oc2c1 11.6

###

Tested on: Streptococcus pyogenes
procedure_details: Antibacterial activity against Streptococcus pyogenes assessed as growth inhibition at 600 ug/ml by NCCLS […] method
Type: functional
run_conditions: read-out: IZ
zone of inhibition at 600 µg/mL overview
I'd appreciate it if you included the unit after the number.

smiles_code | target_system | zone of inhibition at 600 µg/mL
COc1ccc2c(OCCCN3CCN(Cc4ccc(Cl)cc4Cl)CC3)c(-c3ccccc3)c(=O)oc2c1 | Streptococcus pyogenes | 3.27 mm

Give the measured zone of inhibition at 600 µg/mL for COc1ccc2c(OCCCN3CCN(Cc4ccc(F)cc4F)CC3)c(-c3ccccc3)c(=O)oc2c1 5.3 mm

Look up and state reported zone of inhibition at 600 µg/mL for COc1ccc2c(OCCCN3CCN(Cc4ccccc4)CC3)c(-c3ccccc3)c(=O)oc2c1 6.54 mm

Write down zone of inhibition at 600 µg/mL measured for item COc1ccc2c(OCCCN3CCN(Cc4cccnc4)CC3)c(-c3ccccc3)c(=O)oc2c1 9.12 mm

Tell us which zone of inhibition at 600 µg/mL value is on record for COc1ccc2c(OCCCN3CCN(Cc4ccc(Br)cc4)CC3)c(-c3ccccc3)c(=O)oc2c1 6.25 mm

###

# zone of inhibition at 900 µg/mL values compiled below
System: Klebsiella pneumoniae
procedure_details: Antibacterial activity against Klebsiella pneumoniae assessed as growth inhibition at 900 ug/ml by NCCLS […] method
Assay type: functional
run_conditions: read-out: IZ
The reply should be a number in mm, with the unit left off.

smiles_code | value_unit | zone of inhibition at 900 µg/mL
COc1ccc2c(OCCCN3CCN(Cc4cccnc4)CC3)c(-c3ccccc3)c(=O)oc2c1 | mm | 7.93
COc1ccc2c(OCCCN3CCN(Cc4ccc[nH]4)CC3)c(-c3ccccc3)c(=O)oc2c1 | mm | 8.12
COc1ccc2c(OCCCN3CCN(Cc4ccc(F)cc4F)CC3)c(-c3ccccc3)c(=O)oc2c1 | mm | 6.34
CN[C@@H]1[C@H](O[C@H]2[C@H](O[C@H]3[C@H](O)[C@@H](O)[C@H](N=C(N)N)[C@@H](O)[C@@H]3N=C(N)N)O[C@@H](C)[C@]2(O)C=O)O[C@@H](CO)[C@H](O)[C@H]1O | mm | 6.54

Consider now this further compound.
Fill in reported zone of inhibition at 900 µg/mL for this entry: COc1ccc(CN2CCN(CCCOc3c(-c4ccccc4)c(=O)oc4cc(OC)ccc34)CC2)cc1 10.1
